// data source = paper PMC13266999

# Tested on: Acinetobacter baumannii
# testProtocol: MIC (microbroth dilution)
# Assay type: cell-based
# conditionContext: Acinetobacter baumannii, NCTC13302, NCTC 13302, oxa24; read-out: MIC
measuredProperty: MIC (µg/mL)

molecule	measuredProperty	endpointUnit	observed
C[C@H]1COc2c(N3CC[C@@H](Nc4ncccn4)C3)c(F)cc3c(=O)c(C(=O)O)cn1c23 [Compound 46]	MIC	µg/mL	4
O=C(O)c1cn(C2CC2)c2cc(N3CCNCC3)c(F)cc2c1=O [Ciprofloxacin, ciprofloxacin, reference compound]	MIC	µg/mL	32
Cc1cc(C)nc(N[C@@H]2CCN(c3c(F)cc4c(=O)c(C(=O)O)cn5c4c3OC[C@@H]5C)C2)n1 [Compound 50]	MIC	µg/mL	4
COc1c(N2CC[C@@H](Nc3ncccn3)C2)c(F)cc2c(=O)c(C(=O)O)cn(C3CC3)c12 [Compound 51]	MIC	µg/mL	4
C[C@H]1COc2c(N3CCN(C)CC3)c(F)cc3c(=O)c(C(=O)O)cn1c23 [Levofloxacin, reference compound]	MIC	µg/mL	4

###

// values below are reported bioavailability
# testProtocol: Pharmacokinetics
# conditionContext: male, ICR (CD-1), mouse, plasma, po, 20 mg/kg
measuredProperty: bioavailability (%)

smilesText	measuredProperty	observed
C[C@H]1COc2c(N3CC[C@@H](Nc4ncccn4)C3)c(F)cc3c(=O)c(C(=O)O)cn1c23	bioavailability	49.3
Cc1cc(C)nc(N[C@@H]2CCN(c3c(F)cc4c(=O)c(C(=O)O)cn5c4c3OC[C@@H]5C)C2)n1	bioavailability	83

###

# assayedSystem: WT E. coli DNA gyrase (Escherichia coli, UniProt P0AES4+P0AES6)
# Construct: purchased Inspiralis Ltd. (Norwich, UK)
# testProtocol: DNA gyrase inhibition assay
# Format: biochemical

compound	endpointUnit	IC50
C[C@H]1COc2c(N3CC[C@@H](Nc4ncccn4)C3)c(F)cc3c(=O)c(C(=O)O)cn1c23 [Compound 46]	µM	0.682

###

# assayedSystem: CYP2C19 (Homo sapiens, UniProt P33261)
# Sequence (P33261 whole entry): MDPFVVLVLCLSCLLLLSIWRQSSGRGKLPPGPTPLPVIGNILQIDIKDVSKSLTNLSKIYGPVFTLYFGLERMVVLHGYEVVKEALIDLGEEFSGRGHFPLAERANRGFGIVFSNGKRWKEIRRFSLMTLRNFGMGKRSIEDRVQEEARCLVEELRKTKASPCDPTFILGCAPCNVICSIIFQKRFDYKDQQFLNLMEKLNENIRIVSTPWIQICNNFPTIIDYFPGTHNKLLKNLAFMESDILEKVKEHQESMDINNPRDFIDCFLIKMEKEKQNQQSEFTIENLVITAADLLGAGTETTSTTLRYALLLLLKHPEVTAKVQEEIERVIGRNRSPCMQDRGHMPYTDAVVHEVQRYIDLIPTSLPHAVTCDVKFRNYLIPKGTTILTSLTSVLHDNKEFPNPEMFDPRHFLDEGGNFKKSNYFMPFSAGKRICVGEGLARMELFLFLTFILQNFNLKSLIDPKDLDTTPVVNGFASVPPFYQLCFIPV
# testProtocol: CYP inhibition
# conditionContext: human, human liver microsomes, probe omeprazole, CYP2C19 inhibition, HLM, omeprazole substrate

compound	assayedSystem	inhibition at 10 µM [%]
Cc1cc(C)nc(N[C@@H]2CCN(c3c(F)cc4c(=O)c(C(=O)O)cn5c4c3OC[C@@H]5C)C2)n1 [Compound 50]	CYP2C19 (Homo sapiens, UniProt P33261)	9.87

###

# Test system: S. aureus
# testProtocol: Serial passaging, MIC of adapted strains
# Type: cell-based
# conditionContext: Staphylococcus aureus, NCTC13616, NCTC 13616 WT
// values below are reported MIC

compound	MIC (µg/mL)
C[C@H]1COc2c(N3CC[C@@H](Nc4ncccn4)C3)c(F)cc3c(=O)c(C(=O)O)cn1c23	0.5
COc1c(N2CC[C@@H](Nc3ncccn3)C2)c(F)cc2c(=O)c(C(=O)O)cn(C3CC3)c12	0.125
Cc1cc(C)nc(N[C@@H]2CCN(c3c(F)cc4c(=O)c(C(=O)O)cn5c4c3OC[C@@H]5C)C2)n1	0.125
C[C@H]1COc2c(N3CCN(C)CC3)c(F)cc3c(=O)c(C(=O)O)cn1c23 [Levofloxacin, reference compound]	8

###

# assayedSystem: CYP2C8 (Homo sapiens, UniProt P10632)
# Sequence (P10632 whole entry): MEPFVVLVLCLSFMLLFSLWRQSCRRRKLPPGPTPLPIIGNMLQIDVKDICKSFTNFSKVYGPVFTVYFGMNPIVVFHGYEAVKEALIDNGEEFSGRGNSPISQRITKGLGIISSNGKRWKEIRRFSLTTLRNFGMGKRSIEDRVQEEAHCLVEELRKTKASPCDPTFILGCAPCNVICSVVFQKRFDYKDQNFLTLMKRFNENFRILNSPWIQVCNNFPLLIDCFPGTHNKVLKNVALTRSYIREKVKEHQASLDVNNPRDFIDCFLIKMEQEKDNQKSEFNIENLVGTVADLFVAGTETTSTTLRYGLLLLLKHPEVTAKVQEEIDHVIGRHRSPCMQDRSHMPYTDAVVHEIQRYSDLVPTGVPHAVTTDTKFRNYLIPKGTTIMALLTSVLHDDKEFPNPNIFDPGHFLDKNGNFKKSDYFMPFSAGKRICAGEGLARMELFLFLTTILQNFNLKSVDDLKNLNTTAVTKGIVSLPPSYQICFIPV
# testProtocol: CYP inhibition
# conditionContext: human, human liver microsomes, probe amodiaquine, CYP2C8 inhibition, HLM, amodiaquine substrate
measuredProperty: inhibition at 10 µM (%)

molecule	measuredProperty	endpointUnit	observed
Cc1cc(C)nc(N[C@@H]2CCN(c3c(F)cc4c(=O)c(C(=O)O)cn5c4c3OC[C@@H]5C)C2)n1 [Compound 50]	inhibition at 10 µM	%	13.4

###

// values below are reported MIC
# Tested on: S. aureus
# testProtocol: Serial passaging, MIC of adapted strains
# Assay type: cell-based
# conditionContext: Staphylococcus aureus, NCTC13616, NCTC 13616 adapted to 4 x MIC of Compound 7
measuredProperty: MIC (µg/mL)

molecule	assayedSystem	measuredProperty	relation	observed
COc1c(N2CC[C@@H](Nc3ncccn3)C2)c(F)cc2c(=O)c(C(=O)O)cn(C3CC3)c12	S. aureus	MIC	=	0.25
C[C@H]1COc2c(N3CC[C@@H](Nc4ncccn4)C3)c(F)cc3c(=O)c(C(=O)O)cn1c23	S. aureus	MIC	=	0.5
C[C@H]1COc2c(N3CCN(C)CC3)c(F)cc3c(=O)c(C(=O)O)cn1c23 [Levofloxacin, reference compound]	S. aureus	MIC	>	32
Cc1cc(C)nc(N[C@@H]2CCN(c3c(F)cc4c(=O)c(C(=O)O)cn5c4c3OC[C@@H]5C)C2)n1	S. aureus	MIC	=	0.5

###

# testProtocol: Plasma protein binding (RED)
# Type: in vitro ADME
# conditionContext: pH 7.4
measuredProperty: fraction unbound at 4 h, 10 μM

smilesText	relation	observed
O=C(O)c1cn(C2CC2)c2cc(N3CCN(Cc4cccc5ccccc45)CC3)c(F)cc2c1=O	<	0.01
C[C@H]1COc2c(N3CC[C@@H](Nc4ncccn4)C3)c(F)cc3c(=O)c(C(=O)O)cn1c23	=	0.42
Cc1cc(C)nc(N[C@@H]2CCN(c3c(F)cc4c(=O)c(C(=O)O)cn5c4c3OC[C@@H]5C)C2)n1	=	0.28

###

// values below are reported MIC
# Tested on: E. coli
# testProtocol: MIC (microbroth dilution)
# Type: cell-based
# conditionContext: Escherichia coli, NCTC11954, NCTC 11954
measuredProperty: MIC

molecule	assayedSystem	measuredProperty	observed
Cc1cc(C)nc(N[C@@H]2CCN(c3c(F)cc4c(=O)c(C(=O)O)cn5c4c3OC[C@@H]5C)C2)n1	E. coli	MIC	0.25 µg/mL
C[C@H]1COc2c(N3CC[C@@H](Nc4ncccn4)C3)c(F)cc3c(=O)c(C(=O)O)cn1c23	E. coli	MIC	0.125 µg/mL
C[C@H]1COc2c(N3CCN(C)CC3)c(F)cc3c(=O)c(C(=O)O)cn1c23 [Levofloxacin, reference compound]	E. coli	MIC	≤ 0.06 µg/mL
COc1c(N2CC[C@@H](Nc3ncccn3)C2)c(F)cc2c(=O)c(C(=O)O)cn(C3CC3)c12	E. coli	MIC	0.125 µg/mL

###

# System: K. pneumoniae
# testProtocol: MIC (microbroth dilution)
# Format: cell-based, Klebsiella pneumoniae
# conditionContext: Klebsiella pneumoniae, M6; read-out: MIC

smilesText	MIC
C[C@H]1COc2c(N3CC[C@@H](Nc4ncccn4)C3)c(F)cc3c(=O)c(C(=O)O)cn1c23	1 to 2 µg/mL
COc1c(N2CC[C@@H](Nc3ncccn3)C2)c(F)cc2c(=O)c(C(=O)O)cn(C3CC3)c12	1 to 2 µg/mL
O=C(O)c1cn(C2CC2)c2cc(N3CCN(Cc4cccc5ccccc45)CC3)c(F)cc2c1=O	32 to 64 µg/mL
Cc1cc(C)nc(N[C@@H]2CCN(c3c(F)cc4c(=O)c(C(=O)O)cn5c4c3OC[C@@H]5C)C2)n1	2 µg/mL

###

// values below are reported MIC
# Test system: S. aureus
# testProtocol: Serial passaging, MIC of adapted strains
# Type: cell-based
# conditionContext: Staphylococcus aureus, NCTC13616, NCTC 13616 adapted to 4 x MIC of Compound 51

molecule	endpointUnit	MIC
C[C@H]1COc2c(N3CCN(C)CC3)c(F)cc3c(=O)c(C(=O)O)cn1c23 [Levofloxacin, reference compound]	µg/mL	32
Cc1cc(C)nc(N[C@@H]2CCN(c3c(F)cc4c(=O)c(C(=O)O)cn5c4c3OC[C@@H]5C)C2)n1	µg/mL	1
COc1c(N2CC[C@@H](Nc3ncccn3)C2)c(F)cc2c(=O)c(C(=O)O)cn(C3CC3)c12	µg/mL	0.5
C[C@H]1COc2c(N3CC[C@@H](Nc4ncccn4)C3)c(F)cc3c(=O)c(C(=O)O)cn1c23	µg/mL	2

###

// values below are reported MIC
# System: Acinetobacter baumannii
# testProtocol: MIC (microbroth dilution)
# Format: cell-based
# conditionContext: Acinetobacter baumannii, UKA9; read-out: MIC
# Description: All bacteria were maintained on tryptic soy agar (TSA), except Streptococcus spp., which were maintained on Columbia agar plates containing 5% horse blood. […] MICs were measured by the microbroth dilution method. […] Absorbance at OD600 was read on a CLARIOstar spectrophotometer (BMG Labtech) and the MIC was defined as the minimum concentration of compound where no visible growth was detected. […] The MICs were read and defined as above. […]

compound	assayedSystem	MIC
C[C@H]1COc2c(N3CCN(C)CC3)c(F)cc3c(=O)c(C(=O)O)cn1c23 [Levofloxacin, reference compound]	Acinetobacter baumannii	0.125 µg/mL
C[C@H]1COc2c(N3CC[C@@H](Nc4ncccn4)C3)c(F)cc3c(=O)c(C(=O)O)cn1c23 [Compound 46]	Acinetobacter baumannii	≤ 0.06 µg/mL
O=C(O)c1cn(C2CC2)c2cc(N3CCNCC3)c(F)cc2c1=O [Ciprofloxacin, ciprofloxacin, reference compound]	Acinetobacter baumannii	0.25 µg/mL
Cc1cc(C)nc(N[C@@H]2CCN(c3c(F)cc4c(=O)c(C(=O)O)cn5c4c3OC[C@@H]5C)C2)n1 [Compound 50]	Acinetobacter baumannii	0.125 µg/mL
COc1c(N2CC[C@@H](Nc3ncccn3)C2)c(F)cc2c(=O)c(C(=O)O)cn(C3CC3)c12 [Compound 51]	Acinetobacter baumannii	0.06 µg/mL
